Cited source for all entries: patent US20090221680

Target: thrombin (endogenous, clotting assay in plasma or whole blood) (Homo sapiens, UniProt P00734;P00734 P00734:328-363,P00734:364-622)
Assay: inhibition; ACT at 10 uM aptamer
activity values by entry
Give the number; s is assumed, so skip it.

Reported activity for TTTTTTCCTCAGGGATGGTGTGGGTGGCTGAGG (ssDNA) [ARC2188] : what is it?
426

Entry under review: TTTCTGCCTAGGTTGGGTAGGGTGGTGGCAG (ssDNA) [ARC2193] . Reported activity?
545

Given TTTTTTCTGCCTAGGTTGGGTAGGGTGGTGGCAG (ssDNA) [ARC2194] , state its recorded activity.
462
